Hey, just so you know, these numbers are from PubChem BioAssay.

This section presents compounds with their documented composite z-score values.
Test system: Human papillomavirus type 1a protein E7 (residues 44-93)
Assay: HPV1a E7 fragment binders on microarrays, primary screen, biochemical, small-molecule microarray, residues 44-93, 635 nm fluorescence (AID 1108);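 note: E7 fragment applied at 1 µg/mL in TBST for 1 h at 4 C; score combines spot fluorescence with its signal to noise ratio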
Conditions: small-molecule microarray binding, fluorescence 635 nm; higher = more signal
Endpoint: composite z-score

COc1ccc(CCNC(=O)[C@@]2(c3ccc([N+](=O)[O-])cc3)CC(=O)N(CC34CC5CC(CC(C5)C3)C4)[C@@H]2c2ccc(CO)cc2)cc1	1.42
Cc1c(NC(=O)CC#N)c(=O)n(-c2ccccc2)n1C	0.371
COCCOC(=O)N1C(=O)[C@@]2(c3cc(C#CC4=CCCCC4)ccc31)[C@H](C(=O)NC[C@H](O)c1ccccc1)[C@H]1C(=O)O[C@H](c3ccccc3)[C@H](c3ccccc3)N1[C@@H]2c1ccc(O)cc1	1.38
COc1cc(CO)ccc1OC(C)=O	0.464

----------
Assay: small-molecule microarray binders of probe aNog, primary screen, biochemical, biotinylated probe, 635/667 nm fluorescence (AID 1115);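 note: probe is biotinylated aNog protein used at 0.15 µg/mL for 1 h at 4 C; z-score combines 667 nm fluorescence of each spot with its signal to noise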
Conditions: higher = more signal
Decision: composite z-score compared against 0.8; not below it gives class 1, below it gives class 0.

COC(=O)c1ccc(OC)c(/C=C\CC(OC(C)=O)c2ccccc2)c1 (configuration not stated)	class 0
[N-]=[N+]=Nc1ccccc1[C@@H]1OC(c2ccc(OCCCO)cc2)=N[C@]1(CCS(=O)(=O)c1ccccc1)C(=O)N1CCOCC1	class 1
COCCCNC(=O)[C@@]1(c2ccc([N+](=O)[O-])cc2)CC(=O)N(CC23CC4CC(CC(C4)C2)C3)[C@@H]1c1ccc(CO)cc1	class 0
O=C1O[C@@H](c2ccccc2)[C@@H](c2ccccc2)N2[C@@H](c3ccc(OCCO)cc3)[C@]3(C(=O)Nc4ccccc43)[C@@H](C(=O)Nc3nc4ccccc4s3)[C@H]12	class 1
CC(C)C(O)C1C=CC2C(=O)N(c3ccccc3)C(=O)C2N1Nc1ccc(C#N)cc1 (configuration not stated)	class 1
Cc1ccc([C@H]2C(C(=O)O)=C[C@@H](C)N2S(=O)(=O)c2ccc(C)cc2)cc1	class 0
COCCOC(=O)N1C(=O)[C@@]2(c3cc(C#CC4=CCCCC4)ccc31)[C@H](C(=O)NC[C@H](O)c1ccccc1)[C@H]1C(=O)O[C@H](c3ccccc3)[C@H](c3ccccc3)N1[C@@H]2c1ccc(O)cc1	class 1

----------
This section presents compounds with their documented composite z-score values.
Experiment: COS7 lysate on small-molecule microarray, probe aHis, 635 nm (AID 1123);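 note: z-score combines 667nm fluorescence intensity with signal-to-noise per printed compound spot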
Settings: COS7 cell lysate, fluorescence, higher = more signal
Endpoint: composite z-score

COC(=O)[C@@]1(Cc2ccccc2)[C@H]2c3cc(C(=O)N4CCCC4)n(C)c3C[C@H]2CN1C(=O)c1ccccc1	2.35
C=CC[C@@]1(C(=O)O)N=C(c2ccc(OCCCO)cc2)O[C@@H]1c1ccccc1N=[N+]=[N-]	2.03
COc1ccc(CCNC(=O)[C@@H]2c3ccccc3C(=O)N(Cc3ccc(OC(F)(F)F)cc3)[C@H]2c2ccc(CO)cc2)cc1	1.53
O=C1[C@]2(CO)C=C(Br)[C@@H](C[C@@H]2c2ccccc2)[C@@]12CO2	-0.307

----------
Experiment: A549 lung cancer cell viability effects, profiling panel, resazurin fluorescence, 24 h, PK04 Diversity Set (AID 1171); note: test concentration not given here
Details: higher = more signal, called active from +8 up or from −8 down
This section presents compounds with their documented z-score values.
Endpoint: z-score

C[C@]1(C(=O)NCc2ccccc2)c2ccccc2C(=O)N(Cc2cc(F)cc(C(F)(F)F)c2)[C@H]1c1ccc(CO)cc1	-0.375
C=CC[C@@]1(C(=O)O)N=C(c2ccc(OCCCO)cc2)O[C@@H]1c1ccccc1N=[N+]=[N-]	-0.514
COCCOC(=O)N1C(=O)[C@@]2(c3cc(C#CCNC(N)=O)ccc31)[C@H](c1ccc(OCCO)cc1)N1[C@H](c3ccccc3)[C@H](c3ccccc3)OC(=O)[C@H]1[C@@H]2C(=O)N1CCc2cc(OC)c(OC)cc2C1	-0.189
